# tgt: Human Serum Plasmin (human, UniProt P00747)
# assayProcedure: enzyme inhibition assay; limit on the assumption of less than 10% inhibition at the highest concentration tested
observedProperty: Ki

binder: EPI-HNE-4 (designed binder) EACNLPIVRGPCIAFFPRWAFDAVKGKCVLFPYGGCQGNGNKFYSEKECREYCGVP
observedProperty: Ki
endpointResult: > 90 µM
//
binder: EPI-HNE-3 (designed binder) AACNLPIVRGPCIAFFPRWAFDAVKGKCVLFPYGGCQGNGNKFYSEKECREYCGVP
observedProperty: Ki
endpointResult: > 100 µM
